- Test system: MDCK
- testMethodNotes: Effect on MDR1-mediated transport in dog MDCK cells assessed as efflux ratio of permeability from basolateral to apical over apical to basolateral side at 5 uM after 120 mins by LC/MS/MS analysis
- Format: ADME, cell-based, Canis lupus familiaris
- conditionSummary: 2 h
resultType: Ratio

INSERT INTO assay_data (compound, resulttype, measvalue) VALUES
  ('CC1(C)Cc2cc(Cl)ccc2C(N[C@@H](Cc2ccccc2)c2ncc(C#N)c(=O)[nH]2)=N1', 'Ratio', 39),
  ('CC1(C)Cc2cc(Cl)ccc2C(N[C@@H](Cc2ccccc2)c2nc3ccncc3c(=O)[nH]2)=N1', 'Ratio', 1.9),
  ('CC1(C)Cc2cc(Cl)ccc2C(N[C@@H](Cc2ccccc2)c2noc(=O)[nH]2)=N1', 'Ratio', 47),
  ('CC1(C)Cc2cc(Cl)ccc2C(NC(Cc2ccccc2)c2n[nH]c(=O)[nH]2)=N1 (racemic)', 'Ratio', 60),
  ('CC1(C)Cc2cc(Cl)ccc2C(N[C@@H](Cc2ccccc2)c2nccc(=O)[nH]2)=N1', 'Ratio', 2.6),
  ('CC1(C)Cc2cc(Cl)ccc2C(N[C@@H](Cc2ccccc2)c2ncc(Cl)c(=O)[nH]2)=N1', 'Ratio', 5.5);

###

- testMethodNotes: Apparent permeability across apical to basolateral side in dog MDCK2 cells assessed as compound recovery at 5 uM after 120 mins by LC/MS/MS analysis
- Type: ADME, cell-based, Canis lupus familiaris, MDCK-II
- conditionSummary: MDCK, read-out: Drug recovery
Label rule met when recovery at 2 h, 5 µM is at or above 60%; otherwise label rule not met.

INSERT INTO measurements (compound, labelclass) VALUES
  ('CC1(C)Cc2cc(Cl)ccc2C(N[C@@H](Cc2ccccc2)c2nc3ccncc3c(=O)[nH]2)=N1', 'rule not met'),
  ('CC1(C)Cc2cc(Cl)ccc2C(N[C@@H](Cc2ccccc2)c2noc(=O)[nH]2)=N1', 'rule met'),
  ('CC1(C)Cc2cc(Cl)ccc2C(N[C@@H](Cc2ccccc2)c2ncc(C#N)c(=O)[nH]2)=N1', 'rule met'),
  ('CC1(C)Cc2cc(Cl)ccc2C(NC(Cc2ccccc2)c2n[nH]c(=O)[nH]2)=N1 (racemic)', 'rule met'),
  ('CC1(C)Cc2cc(Cl)ccc2C(N[C@@H](Cc2ccccc2)c2ncc(Cl)c(=O)[nH]2)=N1', 'rule met');

###

- testMethodNotes: Apparent permeability across apical to basolateral side in dog MDCK2 cells after 120 mins by LC/MS/MS analysis
- Type: ADME, cell-based, Canis lupus familiaris, MDCK-II
- conditionSummary: MDCK
resultType: Papp A→B at 2 h (×10⁻⁶ cm/s)

INSERT INTO measurements (compound, resulttype, measvalue) VALUES
  ('CC1(C)Cc2cc(Cl)ccc2C(N[C@@H](Cc2ccccc2)c2ncc(Cl)c(=O)[nH]2)=N1', 'Papp A→B at 2 h', 21.3),
  ('CC1(C)Cc2cc(Cl)ccc2C(N[C@@H](Cc2ccccc2)c2nc3ccncc3c(=O)[nH]2)=N1', 'Papp A→B at 2 h', 19.6),
  ('CC1(C)Cc2cc(Cl)ccc2C(N[C@@H](Cc2ccccc2)c2nccc(=O)[nH]2)=N1', 'Papp A→B at 2 h', 23.1),
  ('CC1(C)Cc2cc(Cl)ccc2C(N[C@@H](Cc2ccccc2)c2ncc(C#N)c(=O)[nH]2)=N1', 'Papp A→B at 2 h', 7.3),
  ('CC1(C)Cc2cc(Cl)ccc2C(N[C@@H](Cc2ccccc2)c2noc(=O)[nH]2)=N1', 'Papp A→B at 2 h', 2.6),
  ('CC1(C)Cc2cc(Cl)ccc2C(NC(Cc2ccccc2)c2n[nH]c(=O)[nH]2)=N1 (racemic)', 'Papp A→B at 2 h', 2.3);

###

- testedTarget: Beta-secretase 1 (Homo sapiens, UniProt P56817)
- Sequence (P56817 whole entry): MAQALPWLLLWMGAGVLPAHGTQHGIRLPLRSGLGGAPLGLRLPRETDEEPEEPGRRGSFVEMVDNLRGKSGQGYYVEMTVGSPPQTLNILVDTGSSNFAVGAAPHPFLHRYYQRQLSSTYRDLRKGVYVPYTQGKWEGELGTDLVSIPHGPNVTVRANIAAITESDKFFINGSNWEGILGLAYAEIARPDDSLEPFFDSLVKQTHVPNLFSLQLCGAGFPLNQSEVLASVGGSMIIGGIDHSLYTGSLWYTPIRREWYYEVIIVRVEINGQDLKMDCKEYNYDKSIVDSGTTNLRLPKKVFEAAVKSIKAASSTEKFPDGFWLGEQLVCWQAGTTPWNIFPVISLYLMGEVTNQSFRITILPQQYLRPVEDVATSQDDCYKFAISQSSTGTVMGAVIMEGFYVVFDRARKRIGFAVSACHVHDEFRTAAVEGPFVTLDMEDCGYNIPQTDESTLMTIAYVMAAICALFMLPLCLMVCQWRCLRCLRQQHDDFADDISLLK
pIC50: −log10 of the molar value.
resultType: pIC50

INSERT INTO assay_data (compound, resulttype, inequalitysymbol, measvalue) VALUES
  ('CC1(C)Cc2ccccc2C(NC(Cc2ccccc2)C(=O)O)=N1 (racemic)', 'pIC50', '=', 4.57),
  ('CC1(C)Cc2cc(Cl)ccc2C(NC(Cc2ccccc2)c2nnco2)=N1 (stereo unspecified)', 'pIC50', '=', 3.73),
  ('Cc1ccnc(C(Cc2ccccc2)NC2=NC(C)(C)Cc3cc(Cl)ccc32)n1 (stereo unspecified)', 'pIC50', '<', 3.60),
  ('CC1(C)Cc2cc(Cl)ccc2C(N[C@@H](Cc2ccccc2)c2ncc(Cl)c(=O)[nH]2)=N1', 'pIC50', '=', 6.25),
  ('CC1(C)Cc2cc(Cl)ccc2C(N[C@@H](Cc2ccccc2)c2ncc(I)c(=O)[nH]2)=N1', 'pIC50', '=', 6.23),
  ('CC1(C)Cc2cc(Cl)ccc2C(N[C@@H](Cc2ccccc2)C(=O)O)=N1', 'pIC50', '=', 5.55);

###

- testMethodNotes: Solubility of the compound in HBSS buffer at pH 7.4 after 1 hr
- Assay type: physicochemical
# solubility at 1 h per entry
resultType: solubility at 1 h (µM)

INSERT INTO assay_data (structuresmilesstring, resulttype, measvalue) VALUES
  ('CC1(C)Cc2cc(Cl)ccc2C(N[C@@H](Cc2ccccc2)c2nc3ccncc3c(=O)[nH]2)=N1', 'solubility at 1 h', 57),
  ('CC1(C)Cc2cc(Cl)ccc2C(N[C@@H](Cc2ccccc2)c2nc3ccccc3c(=O)[nH]2)=N1', 'solubility at 1 h', 20);

###

- testMethodNotes: Dissociation constant, pKa of the compound by capillary electrophoresis
- Format: physicochemical
resultType: pKa

INSERT INTO assay_data (compound, measvalue) VALUES
  ('CC1(C)Cc2cc(Cl)ccc2C(N[C@@H](Cc2ccccc2)C(=O)O)=N1', 2.1),
  ('CC1(C)Cc2cc(Cl)ccc2C(N[C@@H](Cc2ccccc2)c2nccc(=O)[nH]2)=N1', 6.3),
  ('CC1(C)Cc2cc(Cl)ccc2C(N[C@@H](Cc2ccccc2)c2noc(=O)[nH]2)=N1', 4),
  ('CC1(C)Cc2cc(Cl)ccc2C(NC(Cc2ccccc2)c2n[nH]c(=O)[nH]2)=N1 (racemic)', 7.1),
  ('CC1(C)Cc2cc(Cl)ccc2C(N[C@@H](Cc2ccccc2)c2nc3ccccc3c(=O)[nH]2)=N1', 7.2);
